Where these numbers come from: ChEMBL document CHEMBL3885861

Species: Rattus norvegicus
Experiment: Open TG-GATES - Regimen: Single
Format: toxicity, organism-based, Sprague-Dawley
Design: regimen Single, gender Male, age 6 weeks
Conditions: in vivo, po, 0 mg/kg, 9 h, tissue Blood, route gavage, dose level Control
PROPERTY: Ht

Please review the following examples before continuing.
| MOLECULE | PROPERTY | RESULT VALUE |
| --- | --- | --- |
| Clc1ccccc1CN1CCc2sccc2C1 | Ht | 37.5% |
| NC(=O)N1c2ccccc2C=Cc2ccccc21 [CARBAMAZEPINE] | Ht | 38.2% |
| COc1ccc(Cc2nccc3cc(OC)c(OC)cc23)cc1OC | Ht | 39.9% |
| O=C(O)c1cc(/N=N/c2ccc(S(=O)(=O)Nc3ccccn3)cc2)ccc1O | Ht | 38.3% |

Next up:
Item NC(=O)N/N=C/c1ccc([N+](=O)[O-])o1 has what recorded Ht?
39.8%

====

Organism: Rattus norvegicus
Assay: Open TG-GATES - Regimen: Daily Repeat
Format: toxicity, organism-based, Sprague-Dawley
Parameters: regimen Daily Repeat, gender Male, age 6 weeks
Conditions: in vivo, po, 0 mg/kg, […], tissue Plasma, route gavage, dose level Control, time 7 day
PROPERTY: AST
Record the result as a number with its unit.

Please review the following examples before continuing.
| MOLECULE | AST |
| --- | --- |
| O=C(O)c1cn(C2CC2)c2cc(N3CCNCC3)c(F)cc2c1=O [CIPROFLOXACIN] | 61.8 IU/L |
| CO[C@H]1/C=C/O[C@@]2(C)Oc3c(C)c(O)c4c(O)c(c(/C=N/N5CCN(C)CC5)c(O)c4c3C2=O)NC(=O)/C(C)=C\C=C\[C@H](C)[C@H](O)[C@@H](C)[C@@H](O)[C@@H](C)[C@H](OC(C)=O)[C@@H]1C [RIFAMPIN] | 68 IU/L |
| CSc1ccc2c(c1)N(CCC1CCCCN1C)c1ccccc1S2 (stereo not drawn) [THIORIDAZINE] | 65 IU/L |
| COc1ccc(Cc2nccc3cc(OC)c(OC)cc23)cc1OC [PAPAVERINE] | 82.2 IU/L |
| CCc1cc(C(N)=S)ccn1 [ETHIONAMIDE] | 58.4 IU/L |

Item C[C@H](CS)C(=O)N1CCC[C@H]1C(=O)O [CAPTOPRIL] has what recorded AST?
62 IU/L

Item CC(=O)Oc1ccccc1C(=O)O [ASPIRIN] has what recorded AST?
59.2 IU/L

Item Cn1c(=O)c2[nH]cnc2n(C)c1=O.O [THEOPHYLLINE] has what recorded AST?
80.4 IU/L

Item NC(=O)N/N=C/c1ccc([N+](=O)[O-])o1 [NITROFURAZONE] has what recorded AST?
69 IU/L

Item COc1ccc2c(c1)c(CC(=O)O)c(C)n2C(=O)c1ccc(Cl)cc1 [INDOMETHACIN] has what recorded AST?
63.2 IU/L

Item O=C(O)c1cc(/N=N/c2ccc(S(=O)(=O)Nc3ccccn3)cc2)ccc1O [SULFASALAZINE] has what recorded AST?
64.6 IU/L

Item CN(C)CCC=C1c2ccccc2CCc2ccccc21 [AMITRIPTYLINE] has what recorded AST?
64.2 IU/L

Item NC(=O)N1c2ccccc2C=Cc2ccccc21 [CARBAMAZEPINE] has what recorded AST?
74 IU/L
